The reported measurements were obtained from patent US20240376097A1.

- Test target: recombinant human Bcl-2-G101V protein (Homo sapiens (Human), UniProt P10415, G101V)
- Measurement notes: Bcl-2-G101V TR-FRET Assay
- Format: binding
- Details: Bcl-2 G101V mutant, TR-FRET; read-out: Biochemical assay (IC50, nM) Bcl-2 G101V
Entries annotated with measured IC50
Just the number please, in nM, no unit attached.

INSERT INTO assay_data (compound, test_target, readout, reported) VALUES
  ('CC(C)c1ccccc1C1CN(Cc2ccc(F)cc2F)CCN1C1CC2(CCN(c3ccc(C(=O)NS(=O)(=O)c4ccc(NC[C@H]5CC[C@](C)(O)CC5)c([N+](=O)[O-])c4)c(Oc4cnc5[nH]ccc5c4)c3)CC2)C1 (some centres unmarked) [Example 50]', 'recombinant human Bcl-2-G101V protein (Homo sapiens (Human), UniProt P10415, G101V)', 'IC50', 1.2);

Give reported IC50 value for CC(C)c1ccccc1C1CN(Cc2cccc(OC3CC3)c2)CCN1C1CC2(CCN(c3ccc(C(=O)NS(=O)(=O)c4ccc(NC[C@H]5CC[C@](C)(O)CC5)c([N+](=O)[O-])c4)c(Oc4cnc5[nH]ccc5c4)c3)CC2)C1 (some centres unmarked) [Example 178]
1.5

----------
- Test system: RS4;11 (BCL-2 dependent acute lymphoblastic leukemia cell line)
- Measurement notes: RS4;11 Cell Proliferation Assay
- Format: cell-based
- Details: Homo sapiens, RS4-11, RS4;11 cells, read-out: Cellular proliferation assay (IC50, nM) RS4
Readout: IC50 (nM)
API: value field is a number in nM; no unit string.

Example entries begin here.
INSERT INTO results (molecule, output_unit, reported) VALUES
  ('CCc1ccc(CN2CCN(C3CC4(CCN(c5ccc(C(=O)NS(=O)(=O)c6ccc(NC[C@H]7CC[C@](C)(O)CC7)c([N+](=O)[O-])c6)c(Oc6cnc7[nH]ccc7c6)c5)CC4)C3)C(c3ccccc3C(C)C)C2)cc1 (some centres unmarked)', 'nM', 0.75),
  ('CC(C)c1ccccc1C1CN(Cc2cccc3c2N(C)C(=O)CO3)CCN1C1CC2(CCN(c3ccc(C(=O)NS(=O)(=O)c4ccc(NC[C@H]5CC[C@](C)(O)CC5)c([N+](=O)[O-])c4)c(Oc4cnc5[nH]ccc5c4)c3)CC2)C1 (some centres unmarked)', 'nM', 0.33),
  ('COc1cc(CN2CCN(C3CC4(C3)CN(c3ccc(C(=O)NS(=O)(=O)c5ccc(NC[C@H]6CC[C@](C)(O)CC6)c([N+](=O)[O-])c5)c(Oc5cnc6[nH]cc(F)c6c5)c3)C4)[C@H](c3ccccc3C(C)C)C2)cc2occc12', 'nM', 0.17),
  ('CCOc1cc(CN2CCN(C3CC4(CCN(c5ccc(C(=O)NS(=O)(=O)c6ccc(NC[C@H]7CC[C@](C)(O)CC7)c([N+](=O)[O-])c6)c(Oc6cnc7[nH]ccc7c6)c5)CC4)C3)C(c3ccccc3C(C)C)C2)ccc1OC (some centres unmarked)', 'nM', 0.24),
  ('COc1cc(CN2CCN(C3CC4(CCN(c5ccc(C(=O)NS(=O)(=O)c6ccc(NC[C@H]7CC[C@](C)(O)CC7)c([N+](=O)[O-])c6)c(Oc6cnc7[nH]ccc7c6)c5)CC4)C3)C(c3ccccc3C(C)C)C2)ccc1C1CC1 (some centres unmarked)', 'nM', 0.375),
  ('COc1cc(CN2CCN(C3CC4(C3)CN(c3ccc(C(=O)NS(=O)(=O)c5ccc(NC[C@H]6CC[C@](C)(O)CC6)c([N+](=O)[O-])c5)c(Oc5cnc6[nH]cc(F)c6c5)c3)C4)[C@H](c3ccccc3C(C)C)C2)cc2c1OCCCC2', 'nM', 0.13),
  ('CC(C)c1ccccc1C1CN(Cc2cccc3c2OCCO3)CCN1C1CC2(CCN(c3ccc(C(=O)NS(=O)(=O)c4ccc(NC[C@H]5CC[C@](C)(O)CC5)c([N+](=O)[O-])c4)c(Oc4cnc5[nH]ccc5c4)c3)CC2)C1 (some centres unmarked)', 'nM', 0.35);

Please look at the following molecule next.
Lab note: record IC50 of COc1cc(CN2CCN(C3CC4(CCN(c5ccc(C(=O)NS(=O)(=O)c6ccc(NC[C@H]7CC[C@](C)(O)CC7)c([N+](=O)[O-])c6)c(Oc6cnc7[nH]ccc7c6)c5)CC4)C3)C(c3ccccc3C(C)C)C2)cc(Cl)c1OC (some centres unmarked) tested on RS4;11 (BCL-2 dependent acute lymphoblastic leukemia cell line).
0.46

----------
- Test target: recombinant human Bcl-2-G101V protein (Homo sapiens (Human), UniProt P10415, G101V)
- Measurement notes: Bcl-2-G101V TR-FRET Assay
- Assay type: binding
- Details: Bcl-2 G101V mutant, TR-FRET; read-out: Biochemical assay (IC50, nM) Bcl-2 G101V
Listed next: entries and their corresponding IC50.
Please give the number followed by its unit.

INSERT INTO results (compound, test_target, reported) VALUES
  ('CC(C)c1ccccc1C1CN(Cc2cccc3c2OC(F)(F)O3)CCN1C1CC2(CCN(c3ccc(C(=O)NS(=O)(=O)c4ccc(NC[C@H]5CC[C@](C)(O)CC5)c([N+](=O)[O-])c4)c(Oc4cnc5[nH]ccc5c4)c3)CC2)C1 (some centres unmarked) [Example 129]', 'recombinant human Bcl-2-G101V protein (Homo sapiens (Human), UniProt P10415, G101V)', '7.8 nM'),
  ('COc1cc(CN2CCN(C3CC4(C3)CN(c3ccc(C(=O)NS(=O)(=O)c5ccc(NC[C@H]6CC[C@](C)(O)CC6)c([N+](=O)[O-])c5)c(Oc5cnc6[nH]cc(F)c6c5)c3)C4)[C@H](c3ccccc3C(C)C)C2)cc2c1OCCCC2 [Example 347]', 'recombinant human Bcl-2-G101V protein (Homo sapiens (Human), UniProt P10415, G101V)', '0.47 nM'),
  ('CC(C)c1ccccc1[C@@H]1CN(Cc2ccc(OC3CC3)cc2)CCN1C1CC2(C1)CN(c1ccc(C(=O)NS(=O)(=O)c3ccc(NC[C@H]4CC[C@](C)(O)CC4)c([N+](=O)[O-])c3)c(Oc3cnc4[nH]cc(F)c4c3)c1)C2 [Example 365]', 'recombinant human Bcl-2-G101V protein (Homo sapiens (Human), UniProt P10415, G101V)', '1.3 nM'),
  ('CC(C)c1ccccc1[C@@H]1CN(Cc2ccc(F)c(F)c2)CCN1C1CC2(CCN(c3ccc(C(=O)NS(=O)(=O)c4ccc(NC[C@H]5CC[C@](C)(O)CC5)c([N+](=O)[O-])c4)c(Oc4cnc5[nH]ccc5c4)c3)CC2)C1 (single isomer, unassigned) [Example 52a]', 'recombinant human Bcl-2-G101V protein (Homo sapiens (Human), UniProt P10415, G101V)', '0.68 nM'),
  ('COc1cc(CN2CCN(C3CC4(C3)CN(c3ccc(C(=O)NS(=O)(=O)c5ccc(NC[C@H]6CC[C@](C)(O)CC6)c([N+](=O)[O-])c5)c(Oc5cnc6[nH]ccc6c5)c3)C4)[C@H](c3ccccc3C(C)C)C2)ccc1C [Example 275]', 'recombinant human Bcl-2-G101V protein (Homo sapiens (Human), UniProt P10415, G101V)', '0.54 nM');

Answer with the recorded IC50 of COc1ccc(CN2CCN(C3CC4(CCN(c5ccc(C(=O)NS(=O)(=O)c6ccc(NC[C@H]7CC[C@](C)(O)CC7)c([N+](=O)[O-])c6)c(Oc6cnc7[nH]ccc7c6)c5)CC4)C3)[C@H](c3ccccc3C(C)C)C2)c(OC)c1 (single isomer, unassigned) [Example 48a] only.
0.21 nM

Assign IC50 to the following record: COC12CC3CC(CC(CN4CCN(C5CC6(C5)CN(c5ccc(C(=O)NS(=O)(=O)c7ccc(NC[C@H]8CC[C@](C)(O)CC8)c([N+](=O)[O-])c7)c(Oc7cnc8[nH]cc(F)c8c7)c5)C6)[C@H](c5ccccc5C(C)C)C4)(C3)C1)C2 [Example 352]
2.2 nM

Report measured IC50; entry is COc1ccc(CN2CCN(C3CC4(CCN(c5ccc(C(=O)NS(=O)(=O)c6ccc(NC[C@H]7CC[C@](C)(O)CC7)c([N+](=O)[O-])c6)c(Oc6cnc7[nH]ccc7c6)c5)CC4)C3)C(c3ccccc3C(C)C)C2)cc1OC (some centres unmarked) [Example 81]
0.2 nM

----------
- Test target: recombinant human Bcl-2-G101V protein (Homo sapiens (Human), UniProt P10415, G101V)
- Measurement notes: Bcl-2-G101V TR-FRET Assay
- Assay type: binding
- Details: Bcl-2 G101V mutant, TR-FRET; read-out: Biochemical assay (IC50, nM) Bcl-2 G101V
Readout: IC50 (nM)
Number only, in nM; omit the unit.

Examples from the recorded data:
INSERT INTO results (compound, output_unit, reported) VALUES
  ('COc1ccc(CN2CCN(C3CC4(CCN(c5ccc(C(=O)NS(=O)(=O)c6ccc(NC[C@H]7CC[C@](C)(O)CC7)c([N+](=O)[O-])c6)c(Oc6cnc7[nH]cc(F)c7c6)c5)CC4)C3)C(c3ccccc3C(C)C)C2)cc1OC(F)F (some centres unmarked)', 'nM', 0.4),
  ('CC(C)c1ccccc1[C@@H]1CN(Cc2ccc(C3COC3)cc2)CCN1C1CC2(C1)CN(c1ccc(C(=O)NS(=O)(=O)c3ccc(NC[C@H]4CC[C@](C)(O)CC4)c([N+](=O)[O-])c3)c(Oc3cnc4[nH]cc(F)c4c3)c1)C2', 'nM', 0.14),
  ('CC(C)c1ccccc1C1CN(Cc2cccc3c2CCCC3)CCN1C1CC2(CCN(c3ccc(C(=O)NS(=O)(=O)c4ccc(NC[C@H]5CC[C@](C)(O)CC5)c([N+](=O)[O-])c4)c(Oc4cnc5[nH]ccc5c4)c3)CC2)C1 (some centres unmarked)', 'nM', 12),
  ('CC(C)c1ccccc1[C@@H]1CN(CC2C3CC4CC(C3)CC2C4)CCN1C1CC2(CCN(c3ccc(C(=O)NS(=O)(=O)c4ccc(NC[C@H]5CC[C@](C)(O)CC5)c([N+](=O)[O-])c4)c(Oc4cnc5[nH]ccc5c4)c3)CC2)C1 (some centres unmarked)', 'nM', 3.4),
  ('CC(C)c1ccccc1[C@@H]1CN(Cc2ccc3c(c2)OCC3(C)C)CCN1C1CC2(C1)CN(c1ccc(C(=O)NS(=O)(=O)c3ccc(NC[C@H]4CC[C@](C)(O)CC4)c([N+](=O)[O-])c3)c(Oc3cnc4[nH]cc(F)c4c3)c1)C2', 'nM', 1.5),
  ('CC(C)c1ccccc1C1CN(Cc2cccc(F)c2)CCN1C1CC2(CCN(c3ccc(C(=O)NS(=O)(=O)c4ccc(NC[C@H]5CC[C@](C)(O)CC5)c([N+](=O)[O-])c4)c(Oc4cnc5[nH]ccc5c4)c3)CC2)C1 (some centres unmarked)', 'nM', 1.3);

// fetch IC50; item: COc1ccc(CN2CCN(C3CC4(CCN(c5ccc(C(=O)NS(=O)(=O)c6ccc(NC[C@H]7CC[C@](C)(O)CC7)c([N+](=O)[O-])c6)c(Oc6cnc7[nH]ccc7c6)c5)CC4)C3)C(c3ccccc3C(C)C)C2)cc1OC(F)(F)F (some centres unmarked) ; system: recombinant human Bcl-2-G101V protein (Homo sapiens (Human), UniProt P10415, G101V)
5.5

Send back recombinant human Bcl-2-G101V protein (Homo sapiens (Human), UniProt P10415, G101V) IC50 of COc1cc(CN2CCN(C3CC4(CCN(c5ccc(C(=O)NS(=O)(=O)c6ccc(NC[C@H]7CC[C@](C)(O)CC7)c([N+](=O)[O-])c6)c(Oc6cnc7[nH]ccc7c6)c5)CC4)C3)[C@H](c3ccccc3C(C)C)C2)cc2c1OCC2(C)C only.
0.48
